The origin of these recorded values is patent US8779158B2.

target: hα7-wt nAChR (Homo sapiens); construct: expressed in transfected cells; assay: Ca2+ flux imaging (FDSS) (Protocol B), potentiation of the choline response; assay type: cell-based; conditions: Ca2+ assay as described in D.1; read-out: % Efficacy
Sequence (P36544 23-502): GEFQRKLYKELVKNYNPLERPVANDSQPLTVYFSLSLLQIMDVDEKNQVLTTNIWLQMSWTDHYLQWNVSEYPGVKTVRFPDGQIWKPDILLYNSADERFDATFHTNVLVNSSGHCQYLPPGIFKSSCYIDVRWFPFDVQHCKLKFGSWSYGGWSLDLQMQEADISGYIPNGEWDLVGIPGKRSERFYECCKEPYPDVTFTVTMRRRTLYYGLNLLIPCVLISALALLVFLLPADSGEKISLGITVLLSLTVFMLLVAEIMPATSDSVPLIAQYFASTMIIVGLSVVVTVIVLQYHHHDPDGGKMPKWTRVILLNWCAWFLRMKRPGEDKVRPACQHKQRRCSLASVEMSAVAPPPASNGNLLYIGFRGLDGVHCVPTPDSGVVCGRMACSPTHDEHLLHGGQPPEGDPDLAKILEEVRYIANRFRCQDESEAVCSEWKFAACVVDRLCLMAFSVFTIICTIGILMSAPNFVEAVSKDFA
readout: Emax (%)

Check out these entries, answers already filled in.
[
  {
    "compound": "CCNC(=O)Cn1nc(Nc2cccc(Cl)c2F)cc1-c1ccnc(C)c1 [compound 137]",
    "unit_abbrev": "%",
    "Emax": 946
  },
  {
    "compound": "Cc1cc(-c2cc(Nc3ccc(F)c(F)c3F)nn2CC(=O)NC2CC2)cc(C)n1 [compound 156]",
    "unit_abbrev": "%",
    "Emax": 975
  },
  {
    "compound": "Cc1cc(-c2cc(Nc3ccc(F)c(C(F)(F)F)c3)nn2CC[C@H](C)O)ccn1 [compound 49]",
    "unit_abbrev": "%",
    "Emax": 500
  },
  {
    "compound": "COc1cc(Nc2cc(-c3cc(C)nc(C)c3)n(CC(=O)NC3CC3)n2)cc(C(F)(F)F)c1 [compound 138]",
    "unit_abbrev": "%",
    "Emax": 686
  },
  {
    "compound": "CC[C@H](O)Cn1nc(Nc2cc(F)cc(F)c2)cc1-c1ccnc(COC)c1 [compound 71]",
    "unit_abbrev": "%",
    "Emax": 700
  },
  {
    "compound": "Cc1cc(-c2cc(Nc3cc(F)c(F)c(F)c3)nn2C[C@H](C)O)ccn1 [compound 44]",
    "unit_abbrev": "%",
    "Emax": 400
  }
]

(a) Cc1cc(-c2cc(Nc3cccc(Cl)c3F)nn2CCC(=O)N(C)C)cc(C)n1 [compound 173]
(b) CCNc1cc(-c2cc(Nc3ccc(F)c(F)c3)nn2C[C@@H](O)CC)ccn1 [compound 65]
(c) CNC(=O)Cn1nc(Nc2ccc3c(c2)OC(F)(F)O3)cc1-c1cc(C)nc(C)c1 [compound 130]
Hello, I need these entries ordered by Emax, highest reading first. Thanks! Note for the reader: the ranking is given by listing the labels in the order requested.
b, c, a

(a) CC[C@H](O)Cn1nc(Nc2cc(OC)cc(C(F)(F)F)c2)cc1-c1ccnc(C)c1C [compound 53]
(b) Cc1cc(-c2cc(Nc3ccc(F)c(F)c3F)nn2CCC(=O)N(C)C)ccn1 [compound 166]
Select the item with the higher value of Emax from the options a and b listed. Refer to your chosen item by its label in the answer.
b
(b: 856%, a: 482%)

(P) Cc1cc(-c2cc(Nc3cccc(C(F)(F)F)c3)nn2CC(=O)NC2CCC2)cc(C)n1 [compound 144]
(Q) CCNc1cc(-c2cc(Nc3cc(F)cc(F)c3)nn2C[C@@H](O)CC)ccn1 [compound 8]
I need your help: which of the pair P , Q has higher Emax? State your choice using its label.
Q

(1) Cc1cc(-c2cc(Nc3ccc(F)c(C(F)(F)F)c3)nn2C[C@H](C)O)cc(N(C)C)n1 [compound 69]
(2) CCNc1cc(-c2cc(Nc3ccc(F)c(C(F)(F)F)c3)nn2C[C@H](C)O)cc(C)n1 [compound 67]
Parameter check: reported Emax is higher for which label, 1 or 2 ? Give the label of your selection.
2
(2: 800%, 1: 400%)

(A) CCNc1cc(-c2cc(Nc3ccc(F)c(F)c3F)nn2C[C@H](C)O)ccn1 [compound 133]
(B) CCNC(=O)Cn1nc(Nc2cccc(OC(F)(F)F)c2)cc1-c1cc(C)nc(C)c1 [compound 139]
Two entries are listed, A and B . Which one carries the higher Emax? API: response body contains the label of the selected item.
B
